Numbers sourced from patent US20260364080A1.

measured_target: Myt1 kinase (recombinant PMYT-1) (Homo sapiens)
Construct: full length PMYT-1 was expressed by baculovirus in insect cells; purchased Invitrogen A30984; host or cells: insect cells (baculovirus)
Sequence (Q99640 1-499): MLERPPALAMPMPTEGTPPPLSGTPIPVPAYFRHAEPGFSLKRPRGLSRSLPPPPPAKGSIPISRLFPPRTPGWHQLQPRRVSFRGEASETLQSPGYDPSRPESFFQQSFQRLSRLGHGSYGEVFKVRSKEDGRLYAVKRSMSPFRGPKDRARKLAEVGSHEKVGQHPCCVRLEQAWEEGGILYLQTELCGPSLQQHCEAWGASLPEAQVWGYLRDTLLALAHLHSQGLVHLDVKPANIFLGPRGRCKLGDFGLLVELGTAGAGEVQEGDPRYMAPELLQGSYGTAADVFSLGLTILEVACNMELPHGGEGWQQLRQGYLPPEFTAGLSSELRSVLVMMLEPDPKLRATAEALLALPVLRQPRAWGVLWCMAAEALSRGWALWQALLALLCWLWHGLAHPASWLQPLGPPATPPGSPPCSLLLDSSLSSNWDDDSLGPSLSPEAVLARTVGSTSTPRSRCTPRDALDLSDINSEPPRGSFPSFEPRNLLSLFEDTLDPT
assay: Myt1 kinase binding assay (LanthaScreen Eu Kinase Binding Assay)
assay_conditions: 3 nM tracer 178, 2.5 nM PMYT-1, 1 nM Eu-labeled antibody; read-out: Myt1 kinase Binding IC50
Experimental: To calculate the emission ratio, the acceptor/tracer emission ([…]) was divided by the antibody/donor emission ([…]) and the average of duplicate measurement was used for calculations. Data plotting, analysis of binding, and curve fitting was done using Excel add-in XLfit version 5.5.0.5 (IDBS, Guildford, United Kingdom). […] “NT” means not tested. We used a LanthaScreen Europium (Eu) Kinase Binding Assay to determine the binding affinities (IC50) of compounds to Myt1 kinase. […]
assay_readout: IC50

{"columns": ["compound", "measured_target", "assay_readout", "value_observed"],
 "data": [
  ["CCn1c(=O)c2cnc(Nc3ccc4c(cnn4C)c3)nc2n1-c1cccc(OC2CCN(C)CC2)n1 [Compound 114]", "Myt1 kinase (recombinant PMYT-1) (Homo sapiens)", "IC50", "20 to 100 nM"],
  ["C=CCn1c(=O)c2cnc(Nc3ccc(Cl)c(C)c3)nc2n1-c1cccc(NC2CCNCC2)n1 [Compound 133]", "Myt1 kinase (recombinant PMYT-1) (Homo sapiens)", "IC50", "100 to 500 nM"],
  ["C=CCn1c(=O)c2cnc(Nc3ccc4c(cnn4C(C)C)c3)nc2n1-c1cccc(OC2CCN(C)CC2)n1 [Compound 248]", "Myt1 kinase (recombinant PMYT-1) (Homo sapiens)", "IC50", "< 20 nM"],
  ["C=CCn1c(=O)c2cnc(Nc3ccc(Cl)cc3)nc2n1-c1cccc(OC2CCNCC2)n1 [Compound 141]", "Myt1 kinase (recombinant PMYT-1) (Homo sapiens)", "IC50", "< 20 nM"]
]}
